# experiment notes: solvent given as SMILES
# details: in OCCO
// Criterion not met strictly below -2 kcal/mol in solvation free energy, 298 K; Criterion met otherwise

Use these answered entries as a reference point.
CC(C)(C)Cl    Criterion met
Cc1ccccc1C    Criterion not met

Query: State whether the measured solvation free energy, 298 K reaches -2 kcal/mol, counting equality as reaching it, for O=C=O
Response: Criterion met

Query: State whether the measured solvation free energy, 298 K reaches -2 kcal/mol, counting equality as reaching it, for C=CCCCCC
Response: Criterion met

Query: State whether the measured solvation free energy, 298 K reaches -2 kcal/mol, counting equality as reaching it, for Brc1ccccc1
Response: Criterion not met

* * *

# experiment notes: solvent given as SMILES
# details: in CC#N
Class definitions on solvation free energy, 298 K: low value: < -20 kJ/mol; medium value: ≥ -20 kJ/mol and < -10 kJ/mol; high value: ≥ -10 kJ/mol

C=C    high value
ClC(Cl)(Cl)Cl    medium value
CCCCC(C)C    medium value
C=CCC    high value
CC(C)CC(C)C    medium value

Query: Determine which band this compound sits in: C1=CCCCC1
Response: medium value

Query: Determine which band this compound sits in: C=CCCC
Response: medium value

Query: Determine which band this compound sits in: Cc1ccc(C)cc1
Response: low value

Query: Determine which band this compound sits in: CC(C)(C)c1ccccc1
Response: low value

Query: Determine which band this compound sits in: CCCC(C)C
Response: medium value

* * *

Reported solvation free energy, 298 K values for a set of compounds
# experiment notes: solvent given as SMILES
# details: in CO
The figure you give is taken to be in kcal/mol; do not add the unit.

Consider the worked cases shown below.
COC    -2.31
O=S=O    -2.84
CC(=O)Nc1ccc(O)cc1    -16.6
c1ccc2c(c1)Nc1ccccc1S2    -13.1
CCCC#N    -5.21
S    -1.72

Sure, the documented solvation free energy, 298 K for O=C1c2ccccc2C(=O)c2c(Cl)cccc21 is -12.7

Sure, the documented solvation free energy, 298 K for CC(C)Cc1ccc(C(C)C(=O)O)cc1 (configuration not stated) is -13.1

Sure, the documented solvation free energy, 298 K for CC(C(=O)O)c1ccc(-c2ccccc2)c(F)c1 (configuration not stated) is -15.9

* * *

# experiment notes: solvent given as SMILES
# details: in CN1CCCCC1=O
Reported solvation free energy, 298 K values for a set of compounds
The figure you give is taken to be in kcal/mol; do not add the unit.

CC(C)OC(C)(C)C    -3.66

Sure, the documented solvation free energy, 298 K for COC(C)=O is -3.72

Sure, the documented solvation free energy, 298 K for CC(C)C=O is -3.92

Sure, the documented solvation free energy, 298 K for ClCCl is -4.45

Sure, the documented solvation free energy, 298 K for C1CCCC1 is -2.81

* * *

# experiment notes: solvent given as SMILES
# details: in N#CCCCCC#N
metric name: solvation free energy, 298 K (kcal/mol)
The figure you give is taken to be in kcal/mol; do not add the unit.

C1CCCCC1    -2.51

Sure, the documented solvation free energy, 298 K for C1CCCC1 is -2.08

Sure, the documented solvation free energy, 298 K for c1ccccc1 is -3.92

Sure, the documented solvation free energy, 298 K for C1CCCCCC1 is -3.34

Sure, the documented solvation free energy, 298 K for CCC(C)C is -1.06

Sure, the documented solvation free energy, 298 K for C=CCCCCC is -2.8
